# Tested system: gastric(H^+ -K^+)ATP-ase (Sus scrofa, UniProt P19156)
# Construct: isolated hog gastric membranes
# Sequence (P19156 2-1034 limits assumed): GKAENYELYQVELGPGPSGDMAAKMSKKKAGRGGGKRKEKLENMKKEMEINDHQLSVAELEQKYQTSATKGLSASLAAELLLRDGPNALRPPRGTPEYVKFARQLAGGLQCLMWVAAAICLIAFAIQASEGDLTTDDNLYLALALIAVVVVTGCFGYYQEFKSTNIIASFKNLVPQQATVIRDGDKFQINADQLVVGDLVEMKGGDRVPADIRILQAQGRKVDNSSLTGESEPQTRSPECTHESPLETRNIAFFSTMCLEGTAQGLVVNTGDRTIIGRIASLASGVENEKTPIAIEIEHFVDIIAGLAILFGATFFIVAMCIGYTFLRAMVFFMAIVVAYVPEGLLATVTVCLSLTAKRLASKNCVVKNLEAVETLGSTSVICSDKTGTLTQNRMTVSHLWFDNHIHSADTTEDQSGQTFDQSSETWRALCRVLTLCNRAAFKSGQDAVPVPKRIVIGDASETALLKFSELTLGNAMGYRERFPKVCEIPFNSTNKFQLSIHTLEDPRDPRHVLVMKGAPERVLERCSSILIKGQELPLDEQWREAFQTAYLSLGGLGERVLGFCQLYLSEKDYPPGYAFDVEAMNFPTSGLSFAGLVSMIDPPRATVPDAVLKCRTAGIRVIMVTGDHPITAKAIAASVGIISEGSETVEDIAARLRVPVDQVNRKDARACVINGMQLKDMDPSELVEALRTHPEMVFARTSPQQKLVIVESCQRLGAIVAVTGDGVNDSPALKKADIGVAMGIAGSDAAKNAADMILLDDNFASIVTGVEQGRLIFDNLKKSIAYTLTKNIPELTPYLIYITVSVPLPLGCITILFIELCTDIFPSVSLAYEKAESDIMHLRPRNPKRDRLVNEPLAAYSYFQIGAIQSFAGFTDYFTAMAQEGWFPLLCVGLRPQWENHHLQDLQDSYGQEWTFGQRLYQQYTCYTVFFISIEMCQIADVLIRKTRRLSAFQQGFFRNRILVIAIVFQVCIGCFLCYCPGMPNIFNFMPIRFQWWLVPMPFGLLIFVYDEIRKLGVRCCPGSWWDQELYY
# Sequence (P18434 whole entry partner): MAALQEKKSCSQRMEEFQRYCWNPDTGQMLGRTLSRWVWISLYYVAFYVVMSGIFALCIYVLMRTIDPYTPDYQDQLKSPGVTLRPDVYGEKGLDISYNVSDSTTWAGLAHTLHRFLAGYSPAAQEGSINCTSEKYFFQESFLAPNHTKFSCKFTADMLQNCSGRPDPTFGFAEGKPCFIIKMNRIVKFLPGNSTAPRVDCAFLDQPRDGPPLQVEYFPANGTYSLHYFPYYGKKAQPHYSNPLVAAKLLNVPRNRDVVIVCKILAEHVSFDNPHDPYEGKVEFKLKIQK
# Test method notes: inhibition of K+-dependent ATP hydrolysis by isolated hog gastric membranes enriched with gastric (H+-K+)ATP-ase
# Reported conditions: read-out: ED50, inhibition of K+-dependent ATP hydrolysis

Compound: COc1ccc2nc([S+]([O-])Cc3nccc4c3CCCO4)[nH]c2c1 (stereo not shown)
Tested system: gastric(H^+ -K^+)ATP-ase (Sus scrofa, UniProt P19156)
Unit descriptor: µM
IC50: 10
